Test system: OVCAR-3 ovarian
METHOD_SUMMARY: NCI-60 one-dose screen, 48 h (100 = growth as untreated, 0 = no growth, -100 = all killed)
CONDITION: 10 µM unless noted
This is part of a sample that, as a whole, favours compounds with a hit. Of some 83,000 tested, about 20% had one in any assay. Active and inactive are the calls of the source. How the source made its calls: active means growth percent below 10; inactive means the rest.
ENDPOINT: growth

Some solved cases for reference:
# COMPOUND, growth
rows = [
    ("CCCCCCCCCCCCCC(=S)NCCCC[C@H](NC(=O)OCc1ccccc1)C(=O)Nc1ccccc1", "22.1% (inactive)"),
    ("CN(C)c1ccc(/C=N/Nc2nnc3n2N=C(c2ccc(Cl)cc2)CS3)cc1", "102% (inactive)"),
]

Give the measured growth for `COC(=O)/C=C/c1cc(OC(C)=O)c2c(c1)[C@@H](C(=O)OC)[C@H](c1ccc(OC(C)=O)c(OC(C)=O)c1)O2`
-21.9% (active)

Name the recorded growth of the item `O=C(O)/C=C(\c1nc2ccc([N+](=O)[O-])cc2[nH]1)c1cc(Cl)ccc1O` in your answer.
-16% (active)

Return value of growth for input `O=C(/C=C/c1cccc([N+](=O)[O-])c1)c1ccc(Nc2nc(N3CCCCC3)nc(N3CCCCC3)n2)cc1` , no commentary.
91.5% (inactive)

Note down growth recorded for `COc1c(B(O)O)cccc1-c1nc2ccc3[nH]ncc3c2c2c1CCCC2`
19.3% (inactive)
